target: human ether-à-go-go-related gene (hERG) potassium channel (human, UniProt Q12809); experiment: primary screen, population patch clamp on CHO cells stably expressing hERG; higher = less effect of the substance
Sequence (Q12809 whole entry, looked up): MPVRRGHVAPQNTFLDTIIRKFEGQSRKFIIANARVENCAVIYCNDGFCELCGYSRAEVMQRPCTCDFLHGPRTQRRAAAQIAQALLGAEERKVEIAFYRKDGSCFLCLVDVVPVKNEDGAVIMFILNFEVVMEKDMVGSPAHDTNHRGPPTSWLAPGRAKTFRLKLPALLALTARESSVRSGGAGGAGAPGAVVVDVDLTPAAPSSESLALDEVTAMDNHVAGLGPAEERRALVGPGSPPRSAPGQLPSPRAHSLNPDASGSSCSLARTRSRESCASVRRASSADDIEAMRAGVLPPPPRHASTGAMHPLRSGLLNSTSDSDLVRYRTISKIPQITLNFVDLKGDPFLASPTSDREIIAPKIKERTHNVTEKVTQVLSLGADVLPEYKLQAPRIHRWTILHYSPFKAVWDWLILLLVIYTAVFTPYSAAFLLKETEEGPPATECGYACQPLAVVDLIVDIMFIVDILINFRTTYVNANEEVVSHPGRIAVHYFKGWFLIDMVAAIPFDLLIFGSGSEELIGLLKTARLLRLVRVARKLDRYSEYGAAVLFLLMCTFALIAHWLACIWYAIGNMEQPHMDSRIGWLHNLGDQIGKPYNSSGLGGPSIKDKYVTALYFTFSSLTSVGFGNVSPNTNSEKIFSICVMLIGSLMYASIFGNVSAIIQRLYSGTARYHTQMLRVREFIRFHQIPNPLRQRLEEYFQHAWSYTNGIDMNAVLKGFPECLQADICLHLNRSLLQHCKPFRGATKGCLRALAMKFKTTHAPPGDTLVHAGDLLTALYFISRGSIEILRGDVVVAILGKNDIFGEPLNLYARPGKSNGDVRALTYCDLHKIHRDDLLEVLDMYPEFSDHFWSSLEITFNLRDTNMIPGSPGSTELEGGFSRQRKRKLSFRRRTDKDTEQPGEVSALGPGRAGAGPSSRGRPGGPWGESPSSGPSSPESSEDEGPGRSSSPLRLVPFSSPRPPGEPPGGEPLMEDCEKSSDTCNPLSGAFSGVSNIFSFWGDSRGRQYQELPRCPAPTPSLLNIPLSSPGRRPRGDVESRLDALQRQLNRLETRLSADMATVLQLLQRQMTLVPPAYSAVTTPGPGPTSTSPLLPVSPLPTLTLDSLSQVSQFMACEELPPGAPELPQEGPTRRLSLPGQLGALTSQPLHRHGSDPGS
Screen size: about 310,000 compounds; about 2,200 (0.71%) showed an effect of 50% or more. The effect is printed as a negative number. This excerpt belongs to a sample that is enriched for strong results.
MEASURED_METRIC: hERG current change (%, negative = inhibition) at 1uM (%)
Quick reminder: number only, in %, skip the unit.

- Cc1ccsc1/C=N/n1c(-c2ccncc2)n[nH]c1=S: 19.8
- CCOc1ccc(CN2CCN(Cc3ccon3)CC2CCO)cc1 (stereo not drawn): -33.5

// "CCNc1nc(CSc2ccccc2)nc2sc(C)c(C)c12" : hERG current change (%, negative = inhibition) at 1uM value = 6.57

Lab book: hERG current change (%, negative = inhibition) at 1uM of CC(C)N1CCN(Cc2cccn2-c2nccs2)CC1CCO (stereo not drawn) noted as 11.5

GET /value?item= "CCOc1ccc(C(=S)N2CCOCC2)cc1" &field=hERG current change (%, negative = inhibition) at 1uM returns 5.79

---

The entries below come with measured hERG current change (%, negative = inhibition) at 1uM values attached.
target: human ether-à-go-go-related gene (hERG) potassium channel (human); assay: primary screen, population patch clamp on CHO cells stably expressing hERG; higher = less effect of the substance
The whole screen tested about 310,000 compounds, of which about 2,200 (0.71%) showed an effect of 50% or more. The effect is printed as a negative number. This excerpt belongs to a sample that is enriched for strong results.
Supply the numeric figure in %, leaving out any unit text.

Guide cases for hERG current change (%, negative = inhibition) at 1uM, answers given:
* c1ccc(CCC2CCCCN2Cc2cn[nH]c2-c2cc3ccccc3o2)nc1 (centres unmarked) | -67
* CCOc1ccc(CN2CCN(C3CCSCC3)CC2CCO)cc1 (centres unmarked) | -76.2
* CC(=O)N(c1ccccc1C)S(=O)(=O)c1ccc(Cl)cc1 | 10
* Cc1oc(-c2cccc(F)c2)nc1CN1CCCCC1CCc1ccccn1 (centres unmarked) | -89.5

Continue with the next compound.
So the reported hERG current change (%, negative = inhibition) at 1uM for "Cc1c(CCC(=O)NC2CC2)c(=O)oc2c(C)c(O)ccc12" , on human ether-à-go-go-related gene (hERG) potassium channel (human), turned out to be 22.9

---

target: human ether-à-go-go-related gene (hERG) potassium channel (human); assay: primary screen, population patch clamp on CHO cells stably expressing hERG; higher = less effect of the substance
Screen size: about 310,000 compounds; about 2,200 (0.71%) showed an effect of 50% or more. The effect is printed as a negative number. Shown is part of a subset that was picked to be rich in strong results.
MEASURED_METRIC: hERG current change (%, negative = inhibition) at 1uM

• CCOC(=O)C1(CCCc2ccccc2)CCN(S(C)(=O)=O)CC1 = 5.98%
• COc1cccc(Nc2nc(Nc3ccc(Cl)c(C(=O)O)c3)nc(C)c2[N+](=O)[O-])c1 = 9.52%
• Cc1nn(CC(=O)N2CCOCC2)c(=O)c2nn(-c3ccccc3)c(C)c12 = 16.5%
• O=C(Oc1cccc2cccnc12)c1cccc(N2C(=O)C3C4CCC(C4)C3C2=O)c1 (stereo not shown) = 3.55%
• CCN1CCN(C(=S)c2ccc(SC)cc2)CC1 = -18%

The value of hERG current change (%, negative = inhibition) at 1uM measured for the compound Cc1ccc(C23CC4CC(CC(C(=O)OCC(=O)NC5CCS(=O)(=O)C5)(C4)C2)C3)cc1 (stereo not shown) turned out to be 1.74%

---

target: human ether-à-go-go-related gene (hERG) potassium channel (human); assay: primary screen, population patch clamp on CHO cells stably expressing hERG; higher = less effect of the substance
The whole screen tested about 310,000 compounds, of which about 2,200 (0.71%) showed an effect of 50% or more. The effect is printed as a negative number. This excerpt belongs to a sample that is enriched for strong results.
Please enter fulfilled where hERG current change (%, negative = inhibition) at 1uM is greater than or equal to -20%, and not fulfilled where it is lower.

* CC1CCCCC12NC(=O)N(CC(=O)Nc1ccc(N3CCOCC3)cc1)C2=O (stereo not drawn) | fulfilled
* CCc1ccccc1OCCCN1CCCC1.O=C(O)C(=O)O | fulfilled

Please indicate if the recorded hERG current change (%, negative = inhibition) at 1uM for "CCC(=O)c1ccccc1OCCCN1CCC(Cc2ccccc2)CC1.O=C(O)C(=O)O" meets or exceeds -20%.
not fulfilled

Reported hERG current change (%, negative = inhibition) at 1uM reaches at least -20% for "CCC(=O)c1ccccc1OCCN1CCN(Cc2ccccc2)CC1.O=C(O)C(=O)O" ?
not fulfilled

Hi, just wondering whether "NC(=O)CSc1nnc(Cc2csc(Nc3ccc(F)cc3)n2)n1Cc1ccccc1" shows hERG current change (%, negative = inhibition) at 1uM of -20% or higher.
fulfilled

Is it the case that "O=C(O)C(=O)O.OCc1ccccc1OCCCN1CCC(Cc2ccccc2)CC1" has hERG current change (%, negative = inhibition) at 1uM reaching or exceeding -20%?
not fulfilled

In plain terms: is recorded hERG current change (%, negative = inhibition) at 1uM at least -20% for "N#Cc1ccccc1OCCCNC1CCCC1.O=C(O)C(=O)O" ?
fulfilled

# bool: hERG current change (%, negative = inhibition) at 1uM of "N#Cc1ccccc1OCCCN1CCC(Cc2ccccc2)CC1.O=C(O)C(=O)O" >= -20%
not fulfilled

Threshold query (hERG current change (%, negative = inhibition) at 1uM >= -20%) on COc1ccc(N=C2SC(CC(=O)Nc3ccccc3)C(=O)N2CCN2CCOCC2)cc1 (stereo not drawn)
fulfilled

---

Target: human ether-à-go-go-related gene (hERG) potassium channel (human)
Assay: primary screen, population patch clamp on CHO cells stably expressing hERG; higher = less effect of the substance
Excerpt: Briefly, Chinese hamster ovary (CHO) cells stably expressing the hERG channel were dislodged from tissue culture flasks and dispensed into PPC plates. […] Small molecule effects on hERG current density were quantified by […].
Screen size: about 310,000 compounds; about 2,200 (0.71%) showed an effect of 50% or more. The effect is printed as a negative number. Many of the other results were omitted from the sample, so strong results are more common in it than they were.
rule met means recorded hERG current change (%, negative = inhibition) at 1uM is -50% or above; rule not met means it is below -50%.

Some entries whose results are on file:
- CN=C1S/C(=C\c2ccc(O)c(OC)c2)C(=O)N1C: rule met
- O=C(OCC(=O)N1CCCC1)c1c(Cl)ccc(Cl)c1Cl: rule met
- COc1ccccc1C(=O)C1CCCN(Cc2cccc3nccnc23)C1 (centres unmarked): rule met

Exam item: decide whether the reported hERG current change (%, negative = inhibition) at 1uM for "NS(=O)(=O)c1ccc(CCNc2nc(CN3CCCCC3)nc3sc4c(c23)CCC4)cc1" is at least -50%.
rule not met

---

In this section we review reported hERG current change (%, negative = inhibition) at 1uM values for a set of compounds.
target: human ether-à-go-go-related gene (hERG) potassium channel (human); experiment: primary screen, population patch clamp on CHO cells stably expressing hERG; higher = less effect of the substance
Hit rate of the full screen: of about 310,000 compounds, about 2,200 (0.71%) showed an effect of 50% or more. The effect is printed as a negative number. Only a selection was taken, and strong results are over-represented in it overall.
Answer format: numeric, % implied, no suffix.

Some compounds with recorded hERG current change (%, negative = inhibition) at 1uM:
• CN(C)c1ccc(/C=N/NC(=O)c2ccn(C)n2)cc1 = 9.92
• CCCCN(C)CCN1C(=O)C2C(C(=O)Nc3ccc(C)cc3)C3C=CC2(O3)C1C(=O)NC1CCCCC1 (stereo not shown) = 15.1
• CCOC(=O)C1CCN(C(=O)CSC2=NCCS2)CC1 = 8.93
• COc1ccc2nc3sc(C(=O)N4CCN(C)CC4)cc3cc2c1 = -12
• O=C(Cc1coc2cc3c(cc12)CCC3)NC1CCCCCCC1 = 0.112
• COC(=O)C1=C(c2ccc(F)cc2OCc2ccccc2)C[C@@H]2CC[C@H]1N2C(=O)NCCNC(C)=O = 16.4
• Cc1ccc(CN2C(=O)C3CCCN3c3ncccc32)cc1 (stereo not shown) = 12.7
• CCOP(=O)(OCC)/C(C#N)=C/c1ccc([N+](=O)[O-])cc1 = -4.07

Entry "Cc1ccc2c(CC(=O)NCC3(N4CCOCC4)CCCCC3)coc2c1C" , hERG current change (%, negative = inhibition) at 1uM reported as -5.15

Note to self: hERG current change (%, negative = inhibition) at 1uM recorded for "O=C(CSc1nnc(-c2cccnc2)n1Cc1ccco1)c1ccc(Cl)cc1" was -21.1
